meta.source: PubChem BioAssay AID1919016

Test system: NCI-H196 complex spheroid growth, percent test/control
Test: Anticancer human tumor NCI-H196 cell line growth inhibition [AhR]; active = viability on the fitted dose curve at most 10% of control; inactive = the rest;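 note: seven days of drug exposure starting three days after plating; 100% = DMSO vehicle control wells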
Details: second compound 3.16 µM; first compound 0.0949 µM
Outcome codes: active, inactive

INSERT INTO results (molecule, class_name) VALUES
  ('CCN(c1cc(-c2ccc(CN3CCOCC3)cc2)cc(C(=O)NCc2c(C)cc(C)[nH]c2=O)c1C)C1CCOCC1 + Cc1cncc(-c2nc(NCCc3c[nH]c4ccccc34)c3ncn(C(C)C)c3n2)c1', 'inactive'),
  ('CC(C)CC(NC(=O)C(Cc1ccccc1)NC(=O)c1cnccn1)B(O)O (stereo not drawn) + Cc1cncc(-c2nc(NCCc3c[nH]c4ccccc34)c3ncn(C(C)C)c3n2)c1', 'active'),
  ('CCN(c1cc(-c2ccc(CN3CCOCC3)cc2)cc(C(=O)NCc2c(C)cc(C)[nH]c2=O)c1C)C1CCOCC1 + Cc1ccccc1N=Nc1ccc(NC(=O)c2ccnn2C)c(C)c1', 'inactive');

---

System: NCI-H196 complex spheroid growth, percent test/control
Test: Anticancer human tumor NCI-H196 cell line growth inhibition [AhR];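 note: seven days of drug exposure starting three days after plating; 100% = DMSO vehicle control wells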
Settings: second compound 3.16 µM; first compound 0.316 µM; active compounds read low
reported_endpoint: viability, T/C (%)

INSERT INTO results (compound, reported_endpoint, unit_abbrev, observed_result) VALUES
  ('NS(=O)(=O)OCC1CC(n2ccc3c(NC4CCc5ccccc54)ncnc32)CC1O (stereo unspecified) + Cc1ccccc1N=Nc1ccc(NC(=O)c2ccnn2C)c(C)c1', 'viability, T/C', '%', 81.6),
  ('COc1cc(Nc2ncc3c(n2)-c2ccc(Cl)cc2C(c2c(F)cccc2OC)=NC3)ccc1C(=O)O + Cc1ccccc1N=Nc1ccc(NC(=O)c2ccnn2C)c(C)c1', 'viability, T/C', '%', 102),
  ('Nc1ccccc1NC(=O)c1ccc(CNC(=O)OCc2cccnc2)cc1 + Cc1ccccc1N=Nc1ccc(NC(=O)c2ccnn2C)c(C)c1', 'viability, T/C', '%', 70.5),
  ('COc1cccc2c1C(=O)c1c(O)c3c(c(O)c1C2=O)CC(O)(C(=O)CO)CC3OC1CC(N)C(O)C(C)O1 (stereo unspecified) + Cc1ccccc1N=Nc1ccc(NC(=O)c2ccnn2C)c(C)c1', 'viability, T/C', '%', 76.6),
  ('O=C(c1cc(Cc2n[nH]c(=O)c3ccccc23)ccc1F)N1CCN(C(=O)C2CC2)CC1 + Cc1ccccc1N=Nc1ccc(NC(=O)c2ccnn2C)c(C)c1', 'viability, T/C', '%', 95.9),
  ('COc1cc(C2c3cc4c(cc3C(OC3OC5COC(C)OC5C(O)C3O)C3COC(=O)C23)OCO4)cc(OC)c1O (stereo unspecified) + Cc1cncc(-c2nc(NCCc3c[nH]c4ccccc34)c3ncn(C(C)C)c3n2)c1', 'viability, T/C', '%', 112);

---

Parameter viability, T/C: see the listing below.
Test system: NCI-H196 complex spheroid growth, percent test/control
Test: Anticancer human tumor NCI-H196 cell line growth inhibition [AhR];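 note: seven days of drug exposure starting three days after plating; 100% = DMSO vehicle control wells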
Details: second compound 3.16 µM; first compound 0.1 µM; active compounds read low
Source text: Multicellular complex tumor spheroid response to aryl hydrocarbon receptor antagonists in combination with a variety of drugs and investigational agents in selected tumor cell lines […] Compounds. […] If the clinical Cmax for an agent had not been determined, the highest concentration tested was 10 microM (Table 1). […]
reported_endpoint: viability, T/C (%)

INSERT INTO measurements (compound, reported_endpoint, unit_abbrev, observed_result) VALUES
  ('Cn1ncnc1C1c2n[nH]c(=O)c3cc(F)cc(c23)NC1c1ccc(F)cc1 (stereo not drawn) + Cc1ccccc1N=Nc1ccc(NC(=O)c2ccnn2C)c(C)c1', 'viability, T/C', '%', 102),
  ('CC1COCCN1c1cc(C2(S(C)(=N)=O)CC2)nc(-c2ccnc3[nH]ccc23)n1 (stereo not drawn) + CC(CO)NC(=O)c1cc(-c2ccc(Cl)cc2)nn(-c2cnn(C)c2)c1=O', 'viability, T/C', '%', 126),
  ('CC(C)c1c(-c2ccccc2)nc2c(C#N)c[nH]n2c1=O + CC(CO)NC(=O)c1cc(-c2ccc(Cl)cc2)nn(-c2cnn(C)c2)c1=O', 'viability, T/C', '%', 111),
  ('COc1cccc2c1C(=O)c1c(O)c3c(c(O)c1C2=O)CC(O)(C(=O)CO)CC3OC1CC(N)C(O)C(C)O1 (stereo not drawn) + Cc1cncc(-c2nc(NCCc3c[nH]c4ccccc34)c3ncn(C(C)C)c3n2)c1', 'viability, T/C', '%', 95.9),
  ('COc1cccc2c1C(=O)c1c(O)c3c(c(O)c1C2=O)CC(O)(C(=O)CO)CC3OC1CC(N)C(O)C(C)O1 (stereo not drawn) + Cc1ccccc1N=Nc1ccc(NC(=O)c2ccnn2C)c(C)c1', 'viability, T/C', '%', 93.8),
  ('CC1COCCN1c1cc(-c2ccnn2C)c2ccnc(-c3ccn[nH]3)c2n1 (stereo not drawn) + Cc1ccccc1N=Nc1ccc(NC(=O)c2ccnn2C)c(C)c1', 'viability, T/C', '%', 70.5),
  ('NS(=O)(=O)OCC1CC(n2ccc3c(NC4CCc5ccccc54)ncnc32)CC1O (stereo not drawn) + Cc1cncc(-c2nc(NCCc3c[nH]c4ccccc34)c3ncn(C(C)C)c3n2)c1', 'viability, T/C', '%', 81.8),
  ('CC(C)c1c(-c2ccccc2)nc2c(C#N)c[nH]n2c1=O + Cc1ccccc1N=Nc1ccc(NC(=O)c2ccnn2C)c(C)c1', 'viability, T/C', '%', 100),
  ('COc1cc(C2c3cc4c(cc3C(OC3OC5COC(C)OC5C(O)C3O)C3COC(=O)C23)OCO4)cc(OC)c1O (stereo not drawn) + CC(CO)NC(=O)c1cc(-c2ccc(Cl)cc2)nn(-c2cnn(C)c2)c1=O', 'viability, T/C', '%', 110),
  ('Nc1ccn(C2OC(CO)C(O)C2(F)F)c(=O)n1 (stereo not drawn) + Cc1ccccc1N=Nc1ccc(NC(=O)c2ccnn2C)c(C)c1', 'viability, T/C', '%', 91.3),
  ('CC1(C)CCC(CN2CCN(c3ccc(C(=O)NS(=O)(=O)c4ccc(NCC5CCOCC5)c([N+](=O)[O-])c4)c(Oc4cnc5[nH]ccc5c4)c3)CC2)=C(c2ccc(Cl)cc2)C1 + CC(CO)NC(=O)c1cc(-c2ccc(Cl)cc2)nn(-c2cnn(C)c2)c1=O', 'viability, T/C', '%', 101),
  ('COc1cccc2c1C(=O)c1c(O)c3c(c(O)c1C2=O)CC(O)(C(=O)CO)CC3OC1CC(N)C(O)C(C)O1 (stereo not drawn) + CC(CO)NC(=O)c1cc(-c2ccc(Cl)cc2)nn(-c2cnn(C)c2)c1=O', 'viability, T/C', '%', 110),
  ('COc1cc(C2c3cc4c(cc3C(OC3OC5COC(C)OC5C(O)C3O)C3COC(=O)C23)OCO4)cc(OC)c1O (stereo not drawn) + Cc1ccccc1N=Nc1ccc(NC(=O)c2ccnn2C)c(C)c1', 'viability, T/C', '%', 94.7);
